target: Cyclic GMP-AMP synthase (Mus musculus); assay: inhibitors of Mus musculus cyclic GMP-AMP synthase, initial high-throughput assay, cell-free, RapidFire MS (AID 1259397); conditions: recombinant mouse cGAS, cGAMP by RapidFire MS; at 12.5 µM; hits give high values;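 further: enzyme stimulated by 45 bp dsDNA with ATP and GTP substrates; cGAMP share of summed cGAMP plus half ATP and half GTP signals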
Among all 130,000 compounds or so, about 230 (0.18%) were called active. The full list was thinned out, with actives kept by preference.
measurementName: inhibition (%)
Answers are plain numbers, in %.

// known answers, use as guide
[
  {
    "compound": "Cc1c(C(=O)NCc2cccc([N+](=O)[O-])c2)sc(=O)n1CCc1ccccc1",
    "readoutUnits": "%",
    "inhibition": -3.1
  },
  {
    "compound": "Cc1ccc(NS(=O)(=O)c2ccccc2C(F)(F)F)cc1C",
    "readoutUnits": "%",
    "inhibition": -9.68
  },
  {
    "compound": "COc1ccc(NC(=O)CCC2CCN(Cc3ccc(SC)cc3)CC2)c(OC)c1",
    "readoutUnits": "%",
    "inhibition": -5.25
  },
  {
    "compound": "Cc1nc(-c2cccs2)sc1C(=O)OCc1cc(=O)n2c(C)csc2n1",
    "readoutUnits": "%",
    "inhibition": 17.2
  },
  {
    "compound": "Cc1nc2c(c(NCc3csc(-c4cnccn4)n3)n1)CCN(C)CC2",
    "readoutUnits": "%",
    "inhibition": -14.9
  },
  {
    "compound": "CCCN(C(=O)c1ccc(-n2ccnc2)cc1)C1CCCC1",
    "readoutUnits": "%",
    "inhibition": -16.4
  },
  {
    "compound": "CC(N)=C(C#N)C(=O)COC(=O)C12CC3CC(CC(Br)(C3)C1)C2",
    "readoutUnits": "%",
    "inhibition": -14
  },
  {
    "compound": "CC(Cn1ccnc1)NS(=O)(=O)c1ccccc1 (stereo unspecified)",
    "readoutUnits": "%",
    "inhibition": -2.43
  }
]

# per-item lookup of inhibition; items listed below
1. COC(=O)Cn1nc([N+](=O)[O-])n(CC(=O)OC)c1=O
2. Cc1cc2nc(N(CCN3CCOCC3)C(=O)C3COc4ccccc4O3)sc2cc1C (stereo unspecified)
3. CCN(Cc1ccccc1)C(=O)COC(=O)c1cccc(O)c1

Reply:
1. -9.81
2. -7.12
3. 5.18
